Attribution: the supplement of paper PMC12042874

test: amyloid nucleation score (Sup35N fusion, yeast selection) (log enrichment); library NNK3; higher = more nucleation; inactive = no reads after selection;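 also: zero at mode of non-aggregating sequences after 7 days selection at 30°C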

# substance, amyloid nucleation score
measured = [
    ("DVNVALIHSDL", "inactive"),
    ("CSEQEACISK", "inactive"),
    ("FGEFKDCQGFSKF", "inactive"),
    ("CSEGLYGVSTVICCIISSVN", 2.2),
    ("SAWLATGTYEVKAQRG", "inactive"),
    ("SCLRHPSTSSQNKSCLPDIP", "inactive"),
    ("SSLSDSDGSFLDIMGAYYWA", "inactive"),
    ("DISIPVLKRSFTCSMAYHC", "inactive"),
    ("VLRFFM", 0.399),
]

----------
test: amyloid nucleation score (Sup35N fusion, yeast selection) (log enrichment); library NNK2; higher = more nucleation; inactive = no reads after selection

# seq, amyloid nucleation score
data = [
    ("ATRGHIWDCSFGADYQCIPS", 5.97),
    ("GKRFNFVTCPPVLRR", -0.088),
    ("WFGYIYFHTTYSFFGHPAAT", -1.5),
    ("PMISFSLTMRDNCYSGWLCN", 1.63),
    ("SHIDMFAQECYLCFANVHRR", 2.78),
    ("FMLAHVYVNV", -1.01),
    ("SFRQIATLYEKMFNDNGNGI", -0.528),
    ("LSDYLPISSWFSLCTEFLAT", -1.02),
]

----------
Reported amyloid nucleation score values for the following substances.
test: amyloid nucleation score (Sup35N fusion, yeast selection) (log enrichment); library NNK2; higher = more nucleation; inactive = no reads after selection
parameter-measured: amyloid nucleation score

# substance, parameter-measured, quantitative-result
measured = [
    ("MWFWTLCIF", "amyloid nucleation score", 8.03),
    ("IGISWLATWPIEFTRLSRMV", "amyloid nucleation score", 1.53),
    ("SISLEIHTAGTGKSRLPFYS", "amyloid nucleation score", 5.67),
    ("STKSSVAVGSDSWNRSHRQV", "amyloid nucleation score", 0.773),
    ("IRVSLFYPSG", "amyloid nucleation score", 3.89),
    ("FICCNNSQIRVSFWLRTWYL", "amyloid nucleation score", 3.39),
    ("FMITWGINRS", "amyloid nucleation score", 4.02),
    ("IGYVEAWWVFLVGSDAVRAP", "amyloid nucleation score", -0.018),
    ("PDVVNNGGSYHLHWGCWCW", "amyloid nucleation score", 3.25),
    ("RKISMTN", "amyloid nucleation score", -0.573),
    ("SSFFRISS", "amyloid nucleation score", -0.907),
    ("SNYSTGHGAGMEDRRLEMGG", "amyloid nucleation score", 0.717),
    ("KLQLVTLW", "amyloid nucleation score", 3.66),
    ("HNRISQRRLRLGLRGHWSRK", "amyloid nucleation score", 0.691),
    ("IGRCDELGRCRTRARACSGL", "amyloid nucleation score", 7.78),
    ("MEPYRVKAMYPPRVIKVWFT", "amyloid nucleation score", -0.448),
    ("THSHTSCKDASSEMRSPCNV", "amyloid nucleation score", 0.264),
    ("ESFVRVLSFFCVSWYGSMVR", "amyloid nucleation score", 1.75),
    ("CHGSCSYETSVVCYMWSGKG", "amyloid nucleation score", 3.21),
]

----------
test: amyloid nucleation score (Sup35N fusion, yeast selection) (log enrichment); library NNK3; higher = more nucleation; inactive = no reads after selection

# seq, amyloid nucleation score
records = [
    ("NSTFRFTVTRFCIAPSEYIG", 0.509),
    ("QMKKLWFF", "inactive"),
    ("VRDRCRIHCAYNRSKGTVSN", "inactive"),
    ("GIAIFTMDCGV", "inactive"),
    ("RGSMRPPSVSQMQCRYKDRF", -0.663),
    ("GSMLKAMELSDVVGSCIY", "inactive"),
    ("LRCHLRKGSRISRSL", "inactive"),
    ("CGTTVGFLMLYLSCIRWL", "inactive"),
    ("CIHTPDRCKVCNGITFDGRC", "inactive"),
]

----------
In this section we review reported amyloid nucleation score values for a set of substances.
test: amyloid nucleation score (Sup35N fusion, yeast selection) (log enrichment); library NNK2; higher = more nucleation; inactive = no reads after selection
parameter-measured: amyloid nucleation score

# substance, parameter-measured, quantitative-result
data = [
    ("SLLHPFLTVGVCMCRYGVNI", "amyloid nucleation score", 1.81),
    ("MSPVCLCCYLPTRVYCKVSG", "amyloid nucleation score", 5.85),
    ("RLIYLCGSRGPNTEFVRVKR", "amyloid nucleation score", 3.21),
    ("GNYNLALDLPLTFERFRQSH", "amyloid nucleation score", -0.736),
    ("TLFRSELFAV", "amyloid nucleation score", 0.495),
    ("SFDSVELARGTASCRVAYFV", "amyloid nucleation score", 0.731),
    ("RPLFEFWPKPPL", "amyloid nucleation score", 2.17),
    ("KHLMMDCAKRMQLRNIRDES", "amyloid nucleation score", 0.216),
    ("STLGPLGPSGYSRRARRLLA", "amyloid nucleation score", 7.42),
    ("LLLVRFAPISV", "amyloid nucleation score", -0.176),
    ("DRNMRNLEIISVH", "amyloid nucleation score", -0.091),
    ("KTFFVYIRSNYCV", "amyloid nucleation score", -1.24),
    ("FLLDCN", "amyloid nucleation score", 2.56),
    ("AIRADTDFDYTIEGSVDGGG", "amyloid nucleation score", -0.199),
    ("VKLPITGIERLLEARQGDQW", "amyloid nucleation score", 0.757),
    ("GSRVWFEIINL", "amyloid nucleation score", 6.01),
    ("LRLSSGLKSVRTRRRM", "amyloid nucleation score", 0.904),
    ("WDALGNVRRAMWVPS", "amyloid nucleation score", 0.048),
    ("WWNEYSH", "amyloid nucleation score", -1.01),
    ("YDQSICLVRNVIAIYDMGSV", "amyloid nucleation score", 6.81),
    ("MVNGEVTLGAVCNTYQWACI", "amyloid nucleation score", 2.66),
    ("RLSFNWSLKSYMLPLESSVV", "amyloid nucleation score", -0.079),
    ("ALPVLIINERTRWGVTLLLP", "amyloid nucleation score", 0.421),
    ("VLCLNFHGANVGWDLTTVYT", "amyloid nucleation score", 1.02),
    ("VRSMTELGPRLVAGK", "amyloid nucleation score", 1.45),
    ("KGGNIHSRVTYR", "amyloid nucleation score", -0.669),
    ("VWPLCGCAWRWSGKWGGTRW", "amyloid nucleation score", 6.41),
    ("TLSCSYVCAPTVYVQSSRPT", "amyloid nucleation score", 1.27),
    ("IDQLLGLDRSCCVNL", "amyloid nucleation score", 0.387),
    ("SFCDLWLLAQDHAKLLGFIA", "amyloid nucleation score", -0.499),
    ("LKLRAPRVMSGIVDSLMWLT", "amyloid nucleation score", -0.32),
    ("LSFSNPWFMIKSRDMFVCIG", "amyloid nucleation score", 0.792),
    ("SGGLSR", "amyloid nucleation score", -0.728),
    ("DFITVYECHCRIFGCVDREA", "amyloid nucleation score", -0.352),
]

----------
test: amyloid nucleation score (Sup35N fusion, yeast selection) (log enrichment); library NNK1; higher = more nucleation; inactive = no reads after selection
parameter-measured: amyloid nucleation score

# seq, parameter-measured, quantitative-result
records = [
    ("KRLHRGCWEVGSRGSLKLVN", "amyloid nucleation score", -1.14),
    ("YKLPAAIDRMIVVQCNRPSI", "amyloid nucleation score", -0.246),
    ("GIFNYWRYYMVDV", "amyloid nucleation score", 0.673),
    ("MFFGWLFHYLLSSTYMFVSL", "amyloid nucleation score", -0.266),
    ("IYVFSALRCTGTEVWYRLVT", "amyloid nucleation score", -1.2),
    ("LSRPVDNSCLESMRRVDWTH", "amyloid nucleation score", -0.444),
    ("SNEVVKFKWSCIPETCSRVW", "amyloid nucleation score", 0.429),
    ("RLTVSGVTLGSVTHAFCGAP", "amyloid nucleation score", 0.267),
    ("LIKKKSNSIYMI", "amyloid nucleation score", -0.062),
    ("VLIGSLLCN", "amyloid nucleation score", 0.878),
    ("SGPFSTYMTRFFLDFGSVDC", "amyloid nucleation score", -1.71),
    ("RFAVCTNFANIFRLQEDQIR", "amyloid nucleation score", 0.481),
    ("DAIHVWCICRKSLVFILRNS", "amyloid nucleation score", 0.086),
    ("SKLTYLTMPSVGEIHFWNPM", "amyloid nucleation score", 3.44),
    ("CTVRFIYRKLN", "amyloid nucleation score", -0.325),
    ("ILHWEKRDSTVKILSLSIHW", "amyloid nucleation score", 0.385),
    ("EGNSDCLWVGYGASMTRWVR", "amyloid nucleation score", 0.258),
]
